- System: Saccharomyces cerevisiae
- test-protocol: protein stability index of tFT-peptide fusion (C-terminal peptide) (PSI (0-1 scale)); higher = more stable (slower turnover)
- condition-notes: genetic background: cdc34-1; temperature: 37 C
Below, each entry is listed alongside its reported protein stability index.
The response must contain the number and no unit.

Here's what some known entries look like.
FPTLHPAIPYLC : 0.643
VWCVFHVWSGRL : 0.49
PSVRCVVACFIN : 0.241
RNWVVDGWRRFP : 0.656
QKGLFYCVILYC : 0.169

The sequence `KNGNVEILIKCT` showed protein stability index equal to 0.625

The sequence `LWVSHFVILIVS` showed protein stability index equal to 0.122

The sequence `LMLIPRLLVGAH` showed protein stability index equal to 0.181

The sequence `LVPYLWWLVFAL` showed protein stability index equal to 0.189

The sequence `CRLLVFGLCVGA` showed protein stability index equal to 0.292

---

- System: Saccharomyces cerevisiae
- test-protocol: protein stability index of tFT-peptide fusion (C-terminal peptide) (PSI (0-1 scale)); higher = more stable (slower turnover)
- condition-notes: genetic background: wild type; temperature: 30 C
So basically every entry gets a class from its protein stability index, ranges being low-valued: < 0.6; mid-valued: ≥ 0.6 and < 0.7; high-valued: ≥ 0.7

RVKMEFGRYRIF : low-valued
RSLVAATLSSLG : high-valued
PESPGSPEIRHR : high-valued

Query: # bin lookup: classify `PEIKKNRTVSIV` by its protein stability index
Result: mid-valued

Query: # bin lookup: classify `LWAGGVAVAVSR` by its protein stability index
Result: mid-valued

Query: # bin lookup: classify `MCVSSSAGVRQE` by its protein stability index
Result: mid-valued

Query: # bin lookup: classify `PLPLPSPPPASP` by its protein stability index
Result: high-valued

Query: # bin lookup: classify `RWRLWVGWWVVG` by its protein stability index
Result: low-valued

Query: # bin lookup: classify `KHKIIGKYQRQI` by its protein stability index
Result: low-valued

Query: # bin lookup: classify `DEANFHGCYYGV` by its protein stability index
Result: mid-valued

---

- Tested on: Saccharomyces cerevisiae
- test-protocol: protein stability index of tFT-peptide fusion (C-terminal peptide) (PSI (0-1 scale)); higher = more stable (slower turnover)
- condition-notes: genetic background: das1 deletion; temperature: 37 C
observation-type: protein stability index
The response must contain the number and no unit.

FSAVVCPTVFLC : 0.746
RRLYERNKNNKQ : 0.729
PRQGGDFVARVG : 0.734
FFIVGACAYVFA : 0.385
MALAVRVVPCGA : 0.464
GWCLGFWCLLVC : 0.156
ALEFLLLVCRRL : 0.602
SRVGAGVVRGVG : 0.54
SVFFRPVLICCA : 0.0628
LLSAFPYLPVFA : 0.394

The sequence `RSKWEKLDKIVS` showed protein stability index equal to 0.681

---

Below, each entry is listed alongside its reported protein stability index.
- System: Saccharomyces cerevisiae
- test-protocol: protein stability index of tFT-peptide fusion (C-terminal peptide) (PSI (0-1 scale)); higher = more stable (slower turnover)
- condition-notes: genetic background: das1 deletion; temperature: 30 C
The response must contain the number and no unit.

LQRLCKKYPEIY [RFA3 C-terminal 12 aa] : 0.709
TKDGEVVKESKK [PET117 C-terminal 12 aa] : 0.677
FSIRSISKFIFT [YOR325W C-terminal 12 aa] : 0.649

Record SVLQQTSKEPFW [HOS4 C-terminal 12 aa] / Saccharomyces cerevisiae, protein stability index recorded as 0.732

Record HLPKATSLPYEK [YER097W C-terminal 12 aa] / Saccharomyces cerevisiae, protein stability index recorded as 0.677

Record PLVHEVNGNEGK [DUF1 C-terminal 12 aa] / Saccharomyces cerevisiae, protein stability index recorded as 0.68

Record RLGDVLRVCCPS [YFL065C C-terminal 12 aa] / Saccharomyces cerevisiae, protein stability index recorded as 0.627

Record RQCEDTNFGFKI [YDL242W C-terminal 12 aa] / Saccharomyces cerevisiae, protein stability index recorded as 0.695

Record IRSLPLPFPHMD [MIG1 C-terminal 12 aa] / Saccharomyces cerevisiae, protein stability index recorded as 0.723

---

- System: Saccharomyces cerevisiae
- test-protocol: protein stability index of tFT-peptide fusion (C-terminal peptide) (PSI (0-1 scale)); higher = more stable (slower turnover)
- condition-notes: genetic background: wild type; temperature: 30 C
Please enter fulfilled where protein stability index is greater than or equal to 0.7, and not fulfilled where it is lower.

Consider the following illustrative entries.
ANYGSCSLGYVL : fulfilled
GFTHAPTVPSPE : fulfilled
NYVVFVRGIKIT : not fulfilled

Query: Assess whether reported protein stability index for `WAARPSATGDRC` sits at 0.7 or higher.
Result: not fulfilled

Query: Assess whether reported protein stability index for `SAPAFPPRPPPT` sits at 0.7 or higher.
Result: not fulfilled

Query: Assess whether reported protein stability index for `VGRVNRNERCQR` sits at 0.7 or higher.
Result: not fulfilled

Query: Assess whether reported protein stability index for `IPLLEALLQLAA` sits at 0.7 or higher.
Result: not fulfilled

Query: Assess whether reported protein stability index for `SLFASTFFVWPS` sits at 0.7 or higher.
Result: fulfilled

---

- Test system: Saccharomyces cerevisiae
- test-protocol: protein stability index of tFT-peptide fusion (C-terminal peptide) (PSI (0-1 scale)); higher = more stable (slower turnover)
- condition-notes: genetic background: das1 deletion; temperature: 30 C
observation-type: protein stability index
The response must contain the number and no unit.

Here's what some known entries look like.
ASKESSKEDVAN [MUM2 C-terminal 12 aa] : 0.69
GPDAPLSKMKYE [SCS7 C-terminal 12 aa] : 0.684
LKDLEKLGWKDE [YGR054W C-terminal 12 aa] : 0.695
STIRRLREMVEA [RPL43A C-terminal 12 aa] : 0.547
EDKEIVDGKVLK [TEF4 C-terminal 12 aa] : 0.663
QNLLPAEKFTHN [CTR1 C-terminal 12 aa] : 0.696
PEEETNWFSGHG [PRP31 C-terminal 12 aa] : 0.745
SITLDDLENIFN [GDS1 C-terminal 12 aa] : 0.735

The sequence AYEFDGDKVIVG [RIP1 C-terminal 12 aa] showed protein stability index equal to 0.704

The sequence KAERCQYRLVTA [YCR025C C-terminal 12 aa] showed protein stability index equal to 0.475

The sequence NTLLSPSRKDNS [MVB12 C-terminal 12 aa] showed protein stability index equal to 0.705

The sequence GDLLSLKGEIMQ [ALK2 C-terminal 12 aa] showed protein stability index equal to 0.689

---

- Test system: Saccharomyces cerevisiae
- test-protocol: protein stability index of tFT-peptide fusion (C-terminal peptide) (PSI (0-1 scale)); higher = more stable (slower turnover)
- condition-notes: genetic background: wild type; temperature: 30 C
Below, each entry is listed alongside its reported protein stability index.
The response must contain the number and no unit.

The sequence `GEKEARRKKVSM` showed protein stability index equal to 0.749

The sequence `TVMRPSVGHVDG` showed protein stability index equal to 0.68

The sequence `PLEYPAQATMKP` showed protein stability index equal to 0.657

The sequence `PPSAPLPTLLHH` showed protein stability index equal to 0.722

The sequence `PHPTPGTPEPRD` showed protein stability index equal to 0.744

The sequence `RLDVGAGGCLGG` showed protein stability index equal to 0.716

---

- System: Saccharomyces cerevisiae
- test-protocol: protein stability index of tFT-peptide fusion (C-terminal peptide) (PSI (0-1 scale)); higher = more stable (slower turnover)
- condition-notes: genetic background: wild type; temperature: 30 C
Please enter Condition met where protein stability index is greater than or equal to 0.7, and Condition not met where it is lower.

Query: Assess whether reported protein stability index for `RKEKRKRRGEAN` sits at 0.7 or higher.
Result: Condition not met

Query: Assess whether reported protein stability index for `VHRMWINARDCV` sits at 0.7 or higher.
Result: Condition not met

---

- Test system: Saccharomyces cerevisiae
- test-protocol: protein stability index of tFT-peptide fusion (C-terminal peptide) (PSI (0-1 scale)); higher = more stable (slower turnover)
- condition-notes: genetic background: wild type; temperature: 30 C
Below, each entry is listed alongside its reported protein stability index.

Here's what some known entries look like.
NKKKNKKEEHVE : 0.688
AVKMLGRGLVLV : 0.624
PLHRPLPRPPSP : 0.745

Switching to the query record.
The sequence `GGFRSVCGGVNW` showed protein stability index equal to 0.665

---

- Test system: Saccharomyces cerevisiae
- test-protocol: protein stability index of tFT-peptide fusion (C-terminal peptide) (PSI (0-1 scale)); higher = more stable (slower turnover)
- condition-notes: genetic background: das1 deletion; temperature: 30 C
Below, each entry is listed alongside its reported protein stability index.
The response must contain the number and no unit.

Here's what some known entries look like.
LCWLVHFFLWVS : 0.312
LVPYLWWLVFAL : 0.192
TIKGRLNVRKIE : 0.623
RLVMAVRVAAGG : 0.347
VRVFSLVVCWVV : 0.262

The sequence `FRFGAKISLIVL` showed protein stability index equal to 0.47

The sequence `FLRWRVWVVVGW` showed protein stability index equal to 0.199

The sequence `FSSRVFLIVGIY` showed protein stability index equal to 0.33

The sequence `LIAGTRRIPLFI` showed protein stability index equal to 0.515

The sequence `VVAALTPLITVA` showed protein stability index equal to 0.183
